# System: ATP;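 also: ATP exposure 15 min at 22 °C before imaging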
# PROTOCOL DESCRIPTION: switch fluorescence ratio, 500 uM ATP over buffer (Cy3 cluster intensity, sum of 5 cycles each) (fold (ratio)); higher = stronger signal-on switching upon ATP binding; sequences stand for … in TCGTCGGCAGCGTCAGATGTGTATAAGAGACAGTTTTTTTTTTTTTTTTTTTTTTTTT…TC
# CONDITIONS USED: aptamer strand: ATP DNA aptamer (quencher-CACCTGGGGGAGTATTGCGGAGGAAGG + anchor), 100 nM annealed; ATP concentration: 500 uM
OBSERVATION TYPE: switch fluorescence ratio

>>> value_measured("GTTGGGGCTG")
0.973
>>> value_measured("CGTTGGGCTG")
1.02
>>> value_measured("ACGTTGCGAG")
0.994
>>> value_measured("GGATCTGGTG")
1.02
>>> value_measured("TTCTTGGACG")
1.05
>>> value_measured("TTTTAGTTAT")
1.04
>>> value_measured("CTTCACTACG")
1.12
>>> value_measured("TTACTAAGGT")
1.06
>>> value_measured("ATGTGAGTTC")
0.985
>>> value_measured("TGATTGGGCT")
1.03
>>> value_measured("ATTAAAGGAG")
1.01
>>> value_measured("TATGTGGACT")
1
>>> value_measured("CGGTTTTAAG")
1.02
>>> value_measured("GGGGTTTGCT")
0.973
>>> value_measured("TCGGGACGGG")
1.01
>>> value_measured("AAGACGCTAA")
1.18
>>> value_measured("GAGGAGCTTG")
0.94
>>> value_measured("CGAGTCCATC")
0.955
>>> value_measured("AGAATTTTTG")
0.963
>>> value_measured("TCATGAGGGG")
0.972

---

# System: ATP;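 also: ATP exposure 15 min at 22 °C before imaging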
# PROTOCOL DESCRIPTION: switch fluorescence ratio, 500 uM ATP over buffer (Cy3 cluster intensity, sum of 5 cycles each) (fold (ratio)); higher = stronger signal-on switching upon ATP binding; sequences stand for … in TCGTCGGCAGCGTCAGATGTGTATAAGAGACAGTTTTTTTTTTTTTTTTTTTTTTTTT…TC
# CONDITIONS USED: aptamer strand: ATP DNA aptamer (quencher-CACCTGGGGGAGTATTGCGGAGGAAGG + anchor), 100 nM annealed; ATP concentration: 500 uM
OBSERVATION TYPE: switch fluorescence ratio

>>> value_measured("AGAGACCTCA")
1.04
>>> value_measured("CAGAGATTTT")
1
>>> value_measured("GGCCGGGGCT")
1.01
>>> value_measured("TAGGGTTGTG")
0.984
>>> value_measured("GGGTTCTATT")
1
>>> value_measured("AATATTGCAC")
1.04
>>> value_measured("AAGCTAAATG")
1.01
>>> value_measured("CGGTAGGGGT")
0.969
>>> value_measured("TAAGTGCGGA")
0.982
>>> value_measured("TCATGTAGAA")
1.01
>>> value_measured("ACTAGGGTCT")
1
>>> value_measured("CAATGCGACA")
1.39
>>> value_measured("TGTAGGAGGG")
0.993
>>> value_measured("TTTATTTTGG")
0.995
>>> value_measured("AAGAAGCTTT")
1.27
>>> value_measured("TTTGGGAGAT")
0.951
>>> value_measured("TAGGTCTGCA")
1.03
>>> value_measured("TTATAAACCT")
1.99
>>> value_measured("AGGTAAGGGC")
1.01
>>> value_measured("TGTTTATTGG")
1.01
>>> value_measured("CAGGGAGGGG")
0.995
>>> value_measured("TAGGCTTTGT")
1.01
>>> value_measured("CAACTTAGTC")
0.988
>>> value_measured("ATGGATGACT")
1.04
>>> value_measured("GCTCTTAGTT")
0.992
>>> value_measured("ATGTGGTTGT")
0.97
>>> value_measured("TGAGGTGGTG")
1.01
>>> value_measured("TGAATGGGGG")
1.01
>>> value_measured("GAAGGGTGGG")
1
>>> value_measured("ACGGGACGGG")
1.02
>>> value_measured("TACTCATGAA")
1.04
>>> value_measured("GGGGGATATA")
1.01
>>> value_measured("AGGGGCTATG")
1.01
>>> value_measured("GCGTCAGGTG")
3.82
>>> value_measured("GCCAGAGTG")
2
>>> value_measured("GTGTGTGGGG")
1.01
>>> value_measured("ATAGGTGGTT")
0.994
>>> value_measured("GATGATGGGG")
0.998
>>> value_measured("GCGACCCTT")
1.12
>>> value_measured("CGCGCCCCTT")
1.13
>>> value_measured("GTTGTGGCGT")
0.985
>>> value_measured("TAGGGAAAGA")
1
>>> value_measured("GAAAGTGCAT")
0.999
